- PROTOCOL TEXT: Apparent permeability of the compound across basolateral to apical side in human Caco2 cells at 10 uM incubated for 2 hrs by LC-MS/MS method
- Format: ADME, cell-based
- RECORDED CONDITIONS: Caco-2
MEASURED ATTRIBUTE: Papp B→A at 2 h, 10 µM

>>> value_observed("CCCCCCC1=C(P(=O)(O)O)N[C@H](C(=O)O)CS1")
"< 0.01 ×10⁻⁶ cm/s"
>>> value_observed("CCCCCCC1=C(P(=O)(O)O)N[C@H](C(=O)OCC)CS1")
"< 0.01 ×10⁻⁶ cm/s"
>>> value_observed("CCCCC1=C(P(=O)(O)O)N[C@H](C(=O)OCC)CS1")
"< 0.01 ×10⁻⁶ cm/s"
>>> value_observed("CCOC(=O)[C@@H]1CSC=C(C(=O)O)N1")
"< 0.01 ×10⁻⁶ cm/s"
>>> value_observed("CCCCC1=C(P(=O)(O)O)N[C@H](C(=O)O)CS1")
"0.35 ×10⁻⁶ cm/s"
